tested on: NCI-H358 (Lung Adenocarcinoma); assay: Bliss excess, mean over the matrix (fraction); higher = more synergy
Listing: Bliss excess of selected compounds

{"columns": ["compound", "Bliss excess"],
 "data": [
  ["C=CCn1c(=O)c2cnc(Nc3ccc(N4CCN(C)CC4)cc3)nc2n1-c1cccc(C(C)(C)O)n1 [AZD1775] + C1CN(CCC1(C(=O)N[C@@H](CCO)C2=CC=C(C=C2)Cl)N)C3=NC=NC4=C3C=CN4 [Capivasertib] (first compound max 3 µM, partner max 3 µM)", -0.0375],
  ["NC1(C(=O)N[C@@H](CCO)c2ccc(Cl)cc2)CCN(c2ncnc3[nH]ccc23)CC1 [Capivasertib] + CCN(CCO)CCCOc1ccc2c(Nc3cc(CC(=O)Nc4cccc(F)c4)[nH]n3)ncnc2c1 [AZD2811] (first compound max 10 µM, 7x7, partner max 1 µM)", -0.0521],
  ["COc1nnc2ccc(N3CCC(c4ccc(OCCN5CCN(C)C(=O)[C@H]5C)cc4)CC3)nn12 [AZD5153] + C=CCn1c(=O)c2cnc(Nc3ccc(N4CCN(C)CC4)cc3)nc2n1-c1cccc(C(C)(C)O)n1 [AZD1775] (first compound max 1 µM, partner max 1 µM)", -0.113],
  ["C[C@@H](c1ccc2nccn2c1)n1nnc2ncc(-c3cnn(C)c3)nc21 [Savolitinib] + Cc1c2c(nn1C)CSCc1cc(n(C)n1)CSc1cc(c3ccccc3c1)OCCCc1c(C(=O)O)n(C)c3c-2c(Cl)ccc13 [AZD5991] (first compound max 1 µM, 7x7, partner max 1 µM)", -0.0538],
  ["Cc1cc2ncnn2cc1Nc1ncc2c(n1)n(C1CCOCC1)c(=O)n2C [AZD7648] + CN(C)CCCOc1ccc(-c2ccc3ncc4c(c3c2)n(C2CCOCC2)c(=O)n4C)cn1 [AZD0156] (first compound max 10 µM, 7x7, partner max 1 µM)", 0.0054]
]}

----------
system: UACC-62 (Melanoma); experiment: combination Emax (second highest fraction inhibited in the dose matrix, 72 h); higher = more inhibition; extreme values may be limits of the assay
# combination Emax per entry

{"columns": ["molecule", "combination Emax"],
 "data": [
  ["CN(CCO)CC[C@H](CSc1ccccc1)Nc1ccc(S(=O)(=O)NC(=O)c2ccc(N3CCC([C@@H](O)c4ccccc4-c4ccc(Cl)cc4)CC3)cc2)cc1S(=O)(=O)C(F)(F)F [AZD4320] + CCN(CCO)CCCOc1ccc2c(Nc3cc(CC(=O)Nc4cccc(F)c4)[nH]n3)ncnc2c1 [AZD2811] (first compound max 1 µM, 7x7, partner max 1 µM)", 0.201],
  ["C=CCn1c(=O)c2cnc(Nc3ccc(N4CCN(C)CC4)cc3)nc2n1-c1cccc(C(C)(C)O)n1 [AZD1775] + C1CN(CCC1(C(=O)N[C@@H](CCO)C2=CC=C(C=C2)Cl)N)C3=NC=NC4=C3C=CN4 [Capivasertib] (first compound max 3 µM, partner max 3 µM)", 0.458],
  ["CC1(C)CCC(CN2CCN(c3ccc(C(=O)NS(=O)(=O)c4ccc(NCC5CCOCC5)c([N+](=O)[O-])c4)c(Oc4cnc5[nH]ccc5c4)c3)CC2)=C(c2ccc(Cl)cc2)C1 [Venetoclax] + C=CCn1c(=O)c2cnc(Nc3ccc(N4CCN(C)CC4)cc3)nc2n1-c1cccc(C(C)(C)O)n1 [AZD1775] (first compound max 1 µM, partner max 1 µM)", 0.578],
  ["C[C@@H]1COCCN1c1cc(C2([S@](C)(=N)=O)CC2)nc(-c2ccnc3[nH]ccc23)n1 [AZD6738] + O=C(c1cc(Cc2n[nH]c(=O)c3ccccc23)ccc1F)N1CCN(C(=O)C2CC2)CC1 [Olaparib] (first compound max 10 µM, 7x7, partner max 10 µM)", 0.509],
  ["CC(=O)c1c(C)c2cnc(Nc3ccc(N4CCNCC4)cn3)nc2n(C2CCCC2)c1=O [Palbociclib] + Cc1c2c(nn1C)CSCc1cc(n(C)n1)CSc1cc(c3ccccc3c1)OCCCc1c(C(=O)O)n(C)c3c-2c(Cl)ccc13 [AZD5991] (first compound max 10 µM, 7x7, partner max 1 µM)", 0.588],
  ["CN(C)CCCOc1ccc(-c2ccc3ncc4c(c3c2)n(C2CCOCC2)c(=O)n4C)cn1 [AZD0156] + C[C@@H]1COCCN1C2=NC(=NC(=C2)C3(CC3)[S@](=N)(=O)C)C4=C5C=CNC5=NC=C4 [AZD6738] (first compound max 1 µM, 7x7, partner max 10 µM)", 0.555],
  ["COc1nnc2ccc(N3CCC(c4ccc(OCCN5CCN(C)C(=O)[C@H]5C)cc4)CC3)nn12 [AZD5153] + Cn1cnc2c(F)c(Nc3ccc(Br)cc3Cl)c(C(=O)NOCCO)cc21 [Selumetinib] (first compound max 1 µM, 7x7, partner max 10 µM)", 0.947]
]}

----------
tested on: KARPAS-299 (T-Cell Non-Hodgkin's Lymphoma); assay: Bliss excess, mean over the matrix (fraction); higher = more synergy
Attribute: Bliss excess

{"columns": ["molecule", "system-tested", "Bliss excess"],
 "data": [
  ["CS(=O)(=O)CCNCc1ccc(-c2ccc3ncnc(Nc4ccc(OCc5cccc(F)c5)c(Cl)c4)c3c2)o1 [Lapatinib] + Cn1cnc2c(F)c(Nc3ccc(Br)cc3Cl)c(C(=O)NOCCO)cc21 [Selumetinib] (first compound max 10 µM, 7x7, partner max 10 µM)", "KARPAS-299 (T-Cell Non-Hodgkin's Lymphoma)", 0.0736],
  ["C=CCn1c(=O)c2cnc(Nc3ccc(N4CCN(C)CC4)cc3)nc2n1-c1cccc(C(C)(C)O)n1 [AZD1775] + O=C(c1cc(Cc2n[nH]c(=O)c3ccccc23)ccc1F)N1CCN(C(=O)C2CC2)CC1 [Olaparib] (first compound max 1 µM, partner max 10 µM)", "KARPAS-299 (T-Cell Non-Hodgkin's Lymphoma)", -0.0605],
  ["COc1cccc(OCCCN)c1-c1cc(Nc2cnc(C#N)cn2)n[nH]1 [Prexasertib] + C[C@@H]1COCCN1C2=NC(=NC(=C2)C3(CC3)[S@](=N)(=O)C)C4=C5C=CNC5=NC=C4 [AZD6738] (first compound max 1 µM, 7x7, partner max 10 µM)", "KARPAS-299 (T-Cell Non-Hodgkin's Lymphoma)", -0.0184],
  ["Cc1c2c(nn1C)CSCc1cc(n(C)n1)CSc1cc(c3ccccc3c1)OCCCc1c(C(=O)O)n(C)c3c-2c(Cl)ccc13 [AZD5991] + CC1(C)CCC(CN2CCN(c3ccc(C(=O)NS(=O)(=O)c4ccc(NCC5CCOCC5)c([N+](=O)[O-])c4)c(Oc4cnc5[nH]ccc5c4)c3)CC2)=C(c2ccc(Cl)cc2)C1 [Venetoclax] (first compound max 1 µM, 7x7, partner max 1 µM)", "KARPAS-299 (T-Cell Non-Hodgkin's Lymphoma)", 0.0445]
]}

----------
test system: EW-24 (Ewing's Sarcoma); experiment: Bliss excess, mean over the matrix (fraction); higher = more synergy

{"columns": ["compound", "Bliss excess"],
 "data": [
  ["CC1(C)CCC(CN2CCN(c3ccc(C(=O)NS(=O)(=O)c4ccc(NCC5CCOCC5)c([N+](=O)[O-])c4)c(Oc4cnc5[nH]ccc5c4)c3)CC2)=C(c2ccc(Cl)cc2)C1 [Venetoclax] + Cn1cnc2c(F)c(Nc3ccc(Br)cc3Cl)c(C(=O)NOCCO)cc21 [Selumetinib] (first compound max 1 µM, 7x7, partner max 3 µM)", -0.0463],
  ["Cc1c2c(nn1C)CSCc1cc(n(C)n1)CSc1cc(c3ccccc3c1)OCCCc1c(C(=O)O)n(C)c3c-2c(Cl)ccc13 [AZD5991] + Cc1cc2ncnn2cc1Nc1ncc2c(n1)n(C1CCOCC1)c(=O)n2C [AZD7648] (first compound max 1 µM, 7x7, partner max 10 µM)", -0.035],
  ["CN(CCO)CC[C@H](CSc1ccccc1)Nc1ccc(S(=O)(=O)NC(=O)c2ccc(N3CCC([C@@H](O)c4ccccc4-c4ccc(Cl)cc4)CC3)cc2)cc1S(=O)(=O)C(F)(F)F [AZD4320] + CCN(CCO)CCCOc1ccc2c(Nc3cc(CC(=O)Nc4cccc(F)c4)[nH]n3)ncnc2c1 [AZD2811] (first compound max 1 µM, 7x7, partner max 1 µM)", 0.0538],
  ["Cc1c2c(nn1C)CSCc1cc(n(C)n1)CSc1cc(c3ccccc3c1)OCCCc1c(C(=O)O)n(C)c3c-2c(Cl)ccc13 [AZD5991] + CN(C)CCCOc1ccc(-c2ccc3ncc4c(c3c2)n(C2CCOCC2)c(=O)n4C)cn1 [AZD0156] (first compound max 1 µM, 7x7, partner max 1 µM)", 0.0103],
  ["CN(CCO)CC[C@H](CSc1ccccc1)Nc1ccc(S(=O)(=O)NC(=O)c2ccc(N3CCC([C@@H](O)c4ccccc4-c4ccc(Cl)cc4)CC3)cc2)cc1S(=O)(=O)C(F)(F)F [AZD4320] + C[C@@H]1COCCN1C2=NC(=NC(=C2)C3(CC3)[S@](=N)(=O)C)C4=C5C=CNC5=NC=C4 [AZD6738] (first compound max 1 µM, 7x7, partner max 10 µM)", 0.0267],
  ["Cc1c2c(nn1C)CSCc1cc(n(C)n1)CSc1cc(c3ccccc3c1)OCCCc1c(C(=O)O)n(C)c3c-2c(Cl)ccc13 [AZD5991] + CC1(C)CCC(CN2CCN(c3ccc(C(=O)NS(=O)(=O)c4ccc(NCC5CCOCC5)c([N+](=O)[O-])c4)c(Oc4cnc5[nH]ccc5c4)c3)CC2)=C(c2ccc(Cl)cc2)C1 [Venetoclax] (first compound max 1 µM, 7x7, partner max 1 µM)", -0.0224],
  ["C[C@@H]1COCCN1c1cc(C2([S@](C)(=N)=O)CC2)nc(-c2ccnc3[nH]ccc23)n1 [AZD6738] + O=C(c1cc(Cc2n[nH]c(=O)c3ccccc23)ccc1F)N1CCN(C(=O)C2CC2)CC1 [Olaparib] (first compound max 10 µM, 7x7, partner max 10 µM)", -0.0177],
  ["Cc1c2c(nn1C)CSCc1cc(n(C)n1)CSc1cc(c3ccccc3c1)OCCCc1c(C(=O)O)n(C)c3c-2c(Cl)ccc13 [AZD5991] + C[C@@H](Nc1cc(F)cc(F)c1)c1cc(C(=O)N(C)C)cc2c(=O)cc(N3CCOCC3)oc12 [AZD8186] (first compound max 1 µM, 7x7, partner max 3 µM)", -0.0426],
  ["NC1(C(=O)N[C@@H](CCO)c2ccc(Cl)cc2)CCN(c2ncnc3[nH]ccc23)CC1 [Capivasertib] + CC(=O)c1c(C)c2cnc(Nc3ccc(N4CCNCC4)cn3)nc2n(C2CCCC2)c1=O [Palbociclib] (first compound max 10 µM, 7x7, partner max 10 µM)", 0.0087],
  ["Cc1c2c(nn1C)CSCc1cc(n(C)n1)CSc1cc(c3ccccc3c1)OCCCc1c(C(=O)O)n(C)c3c-2c(Cl)ccc13 [AZD5991] + CC(=O)O[C@H]1C(=O)[C@@]2(C)[C@H]([C@H](OC(=O)c3ccccc3)[C@]3(O)C[C@H](OC(=O)[C@H](O)[C@@H](NC(=O)c4ccccc4)c4ccccc4)C(C)=C1C3(C)C)[C@]1(OC(C)=O)CO[C@@H]1C[C@@H]2O [Paclitaxel] (first compound max 1 µM, 7x7, partner max 3 µM)", 0.0289],
  ["N#Cc1cnc(Nc2cc(NC[C@H]3CNCCO3)c(C(F)(F)F)cn2)cn1 [SRA737] + C=CCn1c(=O)c2cnc(Nc3ccc(N4CCN(C)CC4)cc3)nc2n1-c1cccc(C(C)(C)O)n1 [AZD1775] (first compound max 10 µM, partner max 1 µM)", 0.0488],
  ["COc1nnc2ccc(N3CCC(c4ccc(OCCN5CCN(C)C(=O)[C@H]5C)cc4)CC3)nn12 [AZD5153] + C[C@@H]1COCCN1C2=NC(=NC(=C2)C3(CC3)[S@](=N)(=O)C)C4=C5C=CNC5=NC=C4 [AZD6738] (first compound max 1 µM, 7x7, partner max 10 µM)", -0.0044]
]}
